B1: glmS ribozyme (parent)
chain: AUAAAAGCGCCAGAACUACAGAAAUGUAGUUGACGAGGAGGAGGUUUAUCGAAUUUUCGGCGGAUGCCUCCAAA

Variants of: B1
method notes: self-cleavage kobs at 40 uM GlcN6P; higher = faster cleavage; RNA array
assay context: with glucosamine-6-phosphate
This sample holds only a part of the variants without activity.
In this section we review reported self-cleavage kobs at 40 uM GlcN6P values for a set of variants.
reported property: self-cleavage kobs at 40 uM GlcN6P

| alteration | value reported |
| --- | --- |
| A12C G51U | < 1e-05 s⁻¹ |
| U56A C71G | 5.19e-05 s⁻¹ |
| G13U G35U G63C A64U | < 1e-05 s⁻¹ |
| G38A G40A | < 1e-05 s⁻¹ |
| G29A G35U C50U | < 1e-05 s⁻¹ |
| A15G C68A C70U | < 1e-05 s⁻¹ |
| A53U C68U | 0.000159 s⁻¹ |
| A39U C68U C71U | 0.000103 s⁻¹ |
| A39U U56A | 0.000199 s⁻¹ |
| A6U C10A G41C U46A C70A | < 1e-05 s⁻¹ |
| G38A G43U | < 1e-05 s⁻¹ |
| A6U C8G G38C G43A | < 1e-05 s⁻¹ |
| A6G C67A C68U | < 1e-05 s⁻¹ |
| A12C G40A C58U | < 1e-05 s⁻¹ |
| C8G A15U G62C | < 1e-05 s⁻¹ |
| G44C G62A | < 1e-05 s⁻¹ |
| C50U A52C | < 1e-05 s⁻¹ |
| A48U G62U C68G | < 1e-05 s⁻¹ |
| G35U U65A | < 1e-05 s⁻¹ |
| G44A C70A | < 1e-05 s⁻¹ |
| U30G U56A G66A | 5.14e-05 s⁻¹ |
| A33U C50G C71G | 0.000128 s⁻¹ |
| G29C A36U | < 1e-05 s⁻¹ |
| C16U U47C | 7.47e-05 s⁻¹ |
| A12G U57A | < 1e-05 s⁻¹ |
| C10G U30C A33C U55A | < 1e-05 s⁻¹ |
| G13C A39U G59U | < 1e-05 s⁻¹ |
| G9A U65C | < 1e-05 s⁻¹ |
| A64G G66A | 0.000837 s⁻¹ |
| U56A U57C | < 1e-05 s⁻¹ |
| C58A G59U C68U | < 1e-05 s⁻¹ |
| A52G C61G | < 1e-05 s⁻¹ |
| A14U C34G A42U U45C A53C | < 1e-05 s⁻¹ |
| C10A G38C G60U C71U | < 1e-05 s⁻¹ |
| C16A U55A | 7.92e-05 s⁻¹ |
| A14C G26A | 6.7e-05 s⁻¹ |
| U55G C70U | 0.0011 s⁻¹ |
| G43U C58G | < 1e-05 s⁻¹ |
| C16G A36G | < 1e-05 s⁻¹ |
| C16U C50G G59A C68A | 4.62e-05 s⁻¹ |
| G35U C61A | < 1e-05 s⁻¹ |
| C11U G41C | < 1e-05 s⁻¹ |
| G44A C68G | < 1e-05 s⁻¹ |
| C10U G37A G44A U57C | < 1e-05 s⁻¹ |
| C8G C10A G60U | < 1e-05 s⁻¹ |
| G7U A39C | < 1e-05 s⁻¹ |
| C8G A39C | < 1e-05 s⁻¹ |
| U46G G66C | 0.000227 s⁻¹ |
| C50U G51U | < 1e-05 s⁻¹ |
| A64G G66C | 4.68e-05 s⁻¹ |
| A6U G35C G62A | < 1e-05 s⁻¹ |
| G7A U30G G41C C58G G66A | < 1e-05 s⁻¹ |
| A14G U55C | 0.00179 s⁻¹ |
| A36U A39U C50U C61G U65A | < 1e-05 s⁻¹ |
| A39C C68G | < 1e-05 s⁻¹ |
| A48U C61U | < 1e-05 s⁻¹ |
| G13C A48C | < 1e-05 s⁻¹ |
| U31G U45G C61A | < 1e-05 s⁻¹ |
| G7U U49A A52C G60C C61U | < 1e-05 s⁻¹ |
| A12C C16G A36U | < 1e-05 s⁻¹ |
| U31C C68A | < 1e-05 s⁻¹ |
| G7C A15G | < 1e-05 s⁻¹ |
| G29A C70U | 0.000121 s⁻¹ |
| G29U G37C A39G U56A C61G | < 1e-05 s⁻¹ |
| G32C G35A A48U A52U U54C C67U | < 1e-05 s⁻¹ |
| C10G G60U | < 1e-05 s⁻¹ |
| C16G A33U | < 1e-05 s⁻¹ |
| U47G A53G | 0.000319 s⁻¹ |
| A12C A53C | 0.000109 s⁻¹ |
| C16U G41A | 6.97e-05 s⁻¹ |
| C34A A36G | < 1e-05 s⁻¹ |
| G43C U57A C70G | < 1e-05 s⁻¹ |
| G9A G41U U56G | < 1e-05 s⁻¹ |
| G59U G66U | < 1e-05 s⁻¹ |
| G35U U54A | < 1e-05 s⁻¹ |
| A42G C61G | < 1e-05 s⁻¹ |
| A14U U55C | 0.000181 s⁻¹ |
| C68A U69C | < 1e-05 s⁻¹ |
| A15G G29U U54C | 2.83e-05 s⁻¹ |
| G35C G66A | < 1e-05 s⁻¹ |
| C10U U45A G51U C67A | < 1e-05 s⁻¹ |
| U47A U65G | 5.62e-05 s⁻¹ |
| G40A A53U | 0.00015 s⁻¹ |
| G7U C19A | < 1e-05 s⁻¹ |
| A14U G51A U57C G60U A64G U65G | < 1e-05 s⁻¹ |
| A14G U69G | 8.24e-05 s⁻¹ |
| C16G U69C | 5.13e-05 s⁻¹ |
| U31C U56G | 0.000154 s⁻¹ |
| G32A U47G U57G | < 1e-05 s⁻¹ |
| C8G U31C C71A | < 1e-05 s⁻¹ |
| G7U G29C | < 1e-05 s⁻¹ |

These measurements were taken from the supplement of paper PMC7125110.
